B1: VH:VL chains; a variant is named by its letters at X, in order (parent)
chain 1: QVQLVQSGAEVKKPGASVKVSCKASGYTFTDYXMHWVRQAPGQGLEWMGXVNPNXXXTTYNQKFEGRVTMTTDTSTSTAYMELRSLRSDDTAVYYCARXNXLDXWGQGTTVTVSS
chain 2: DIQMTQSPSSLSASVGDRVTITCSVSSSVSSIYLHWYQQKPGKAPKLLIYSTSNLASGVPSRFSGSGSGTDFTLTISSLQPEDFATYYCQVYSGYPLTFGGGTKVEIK

variants of: B1; experiment: yeast display scFab, FACS + sequencing
propertyLabel: non-specific binding call

As a guide, the following entries are already answered.
[[record]]
mutationnotation = "ARGRGSSS"
recordedmeasurement = "binds"

[[record]]
mutationnotation = "AGGRSFVF"
recordedmeasurement = "binds"

[[record]]
mutationnotation = "VTGEDDWD"
recordedmeasurement = "no binding"

[[record]]
mutationnotation = "YRTGAAAD"
recordedmeasurement = "binds"

[[record]]
mutationnotation = "FRTGDDSF"
recordedmeasurement = "no binding"

[[record]]
mutationnotation = "YEGGTSGA"
recordedmeasurement = "no binding"

[[record]]
mutationnotation = "YKGKGFGA"
recordedmeasurement = "binds"

[[record]]
mutationnotation = "YKGKGAWA"
recordedmeasurement = "binds"


// query State the recorded non-specific binding call for this entry: "VRGKAFVV"
// result binds

// query Queued: "YRGGGDVS"
// result binds
